- target.entity: T1, soluble human CTLA-4 expressed with a C-terminal myc-myc-polyhistidine tag (human)
- T1 construct: soluble protein; also called hCTLA-4.mmh; hCTLA4.mmh
- assay.explanation: SPR, mAb capture, 25 C
Rule: Satisfied for koff not less than 0.0004 s⁻¹, Not satisfied for anything less.

binder	class.assignment
H1H19291P (antibody, human IgG1, V domains shown) VH: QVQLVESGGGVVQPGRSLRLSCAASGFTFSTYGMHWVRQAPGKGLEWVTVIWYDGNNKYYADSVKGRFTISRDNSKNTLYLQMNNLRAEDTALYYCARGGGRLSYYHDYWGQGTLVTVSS VL: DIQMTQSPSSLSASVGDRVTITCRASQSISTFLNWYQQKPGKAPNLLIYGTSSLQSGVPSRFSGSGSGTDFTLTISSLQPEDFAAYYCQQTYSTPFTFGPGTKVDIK	Satisfied
H1H19303P (antibody, human IgG1, kappa, V domains shown, also called REGN4659) VH: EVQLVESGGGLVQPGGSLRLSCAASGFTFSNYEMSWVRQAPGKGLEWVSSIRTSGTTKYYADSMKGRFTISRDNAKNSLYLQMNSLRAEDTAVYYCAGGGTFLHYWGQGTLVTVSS VL: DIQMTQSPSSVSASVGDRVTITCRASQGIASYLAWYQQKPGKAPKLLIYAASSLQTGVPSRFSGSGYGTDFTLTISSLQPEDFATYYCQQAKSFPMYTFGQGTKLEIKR	Satisfied
H1H19284P (antibody, human IgG1, V domains shown) VH: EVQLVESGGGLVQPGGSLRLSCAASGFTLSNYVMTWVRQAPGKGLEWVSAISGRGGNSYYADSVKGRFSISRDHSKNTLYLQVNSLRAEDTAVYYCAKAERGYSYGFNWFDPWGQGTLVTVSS VL: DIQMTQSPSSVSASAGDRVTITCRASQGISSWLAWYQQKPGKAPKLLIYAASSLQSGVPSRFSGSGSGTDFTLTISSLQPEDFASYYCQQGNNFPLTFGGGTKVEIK	Not satisfied
H1H19264P (antibody, human IgG1, V domains shown) VH: QVQLVQSGAEVKKPGASVKVSCKASDYTFTSYGISWVRQAPGQGLEWMGWISVYNGNINYAQKFKGRVTMTTDTSTSTAYMELRSLRSDDMAVYYCARVTQFGMDVWGQGTTVTVSS VL: DIQMTQSPSSLSASVGDRVTITCRASQSISSNLNWYQQNPGKAPKLLIYTTSSLQGGVPSRFSGSGSGTDFTLTISSLQPEDFATYYCQQSFRTPFTFGPGTKVDIK	Satisfied
H1H19307P (antibody, human IgG1, V domains shown) VH: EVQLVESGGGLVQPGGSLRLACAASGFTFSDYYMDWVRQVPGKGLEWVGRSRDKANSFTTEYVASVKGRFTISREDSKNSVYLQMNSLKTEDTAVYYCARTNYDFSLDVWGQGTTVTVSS VL: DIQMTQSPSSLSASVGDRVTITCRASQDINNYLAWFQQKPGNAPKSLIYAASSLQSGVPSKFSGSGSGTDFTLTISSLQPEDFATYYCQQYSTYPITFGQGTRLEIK	Not satisfied
H1H20361N (antibody, human IgG1, V domains shown, here with human IgG1 Fc (H1H)) VH: QVQLQESGPGLVKPSQTLSLTCTVSGGSINNGGHYWTWIRQHPGKGLEWIGYIYYIGTTYYNPSLESRLSLSVDTSKNQFSLKLSSVTAADTAIYYCARSSLSVSEAFDVWGQGTMVTVSS VL: DIQMTQSPSSLSASVGDRITITCRGSQNIGSFLSWYQQRPGKAPKLLIFGAYNLQGGVPSRFSGSGSGTDFTLTISSLQPEDFATYFCQQSYSTPPITFGQGTRLEIK	Satisfied
H1H19313P (antibody, human IgG1, V domains shown) VH: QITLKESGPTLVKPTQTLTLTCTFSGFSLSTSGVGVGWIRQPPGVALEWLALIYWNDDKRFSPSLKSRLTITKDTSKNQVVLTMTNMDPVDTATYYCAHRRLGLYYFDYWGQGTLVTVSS VL: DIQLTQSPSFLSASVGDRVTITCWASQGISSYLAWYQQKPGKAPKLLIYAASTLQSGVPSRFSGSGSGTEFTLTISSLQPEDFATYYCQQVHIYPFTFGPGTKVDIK	Satisfied
H1H20372N (antibody, human IgG1, V domains shown, here with human IgG1 Fc (H1H)) VH: EVQLVESGGGLVQPGRSLRLSCAGTGFIFDDYAMHWVRQAPGKGLEWVSGISWNSNSLGYADSVKGRFTISRDNAKKSLYLQMSSLRAEDTALYYCVKDVTRLELRGFLDYWGQGTQVTVSS VL: DIQMTQSPSSLSASVGDRVTITCRASQDIRNDLGWHQQKSGKAPKSLIYAASSLQSGAPSRFSGSGSGTEFTLTISSLQPEDSATYYCLQQNSYPPTFGQGTKVEIK	Not satisfied
